Assignment: determine reported Kd for the given binders.
# ASSAY TARGET: T1, recombinant human TIGIT (human, UniProt Q495A1 22-141, limits assumed)
# T1 construct: recombinant human TIGIT used in Carterra SPR; also called hTIGIT
# T1 sequence (looked up): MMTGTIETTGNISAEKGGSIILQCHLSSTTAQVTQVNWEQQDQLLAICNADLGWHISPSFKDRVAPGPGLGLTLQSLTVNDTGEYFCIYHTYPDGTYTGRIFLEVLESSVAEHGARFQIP
# TEST: SPR Carterra, average
Number first, unit second.

Consider the reported Kd for these binders:
TIGIT-SC139 (Fc fusion, VHH-Fc fusion in assay) VHH: EVQLVESGGGLVQPGGSLRLSCAASGFTLENNMMGWFRQAPGKEREFVAAISRSGTLKAYADSVKGRFTISADNSKNTAYLRMNSLKPEDTAVYYCAGLTSGGAFSYYWGQGTLVTVSS : 55.2 nM
TIGIT-SC2 (Fc fusion, VHH-Fc fusion in assay) VHH: EVQLVESGGGLVQPGGSLRLSCAASGFTLSSNWMGWFRQAPGKEREMVAAIDWSGGSALYADSVKGRFTISADNSKNTAYLQMNSLKPEDTAVYYCAKDALSNSARFDHWGQGTLVTVSS : 22.1 nM
TIGIT-SC149 (Fc fusion, VHH-Fc fusion in assay) VHH: EVQLVESGGGLVQPGGSLRLSCAASGFTLENNMMGWFRQAPGKEREFVAAISRSGTLKAYADSVKGRFTISADNSKNTAYLQMNSLKPEDTAVYYCAKVQGPYCSGGSCYLYTFDLWGQGTLVTVSS : 35 nM
TIGIT-SC61 (Fc fusion, VHH-Fc fusion in assay) VHH: EVQLVESGGGLVQPGGSLRLSCAASGNTFSGGFMGWFRQAPGKEREWVASVLRGGYTWYADSVKGRFTISADNSKNTAYLQMNSLKPEDTAVYYCTRGDTAMATFDYWGQGTLVTVSS : 59.2 nM

Consider the additional binder presented here.
-- ask Which Kd reading was recorded for the binder TIGIT-SC203 (Fc fusion, VHH-Fc fusion in assay) VHH: EVQLVESGGGLVQPGGSLRLSCAASGFTFSPSWMGWFRQAPGKEREWVASVLRGGYTWYADSVKGRFTISADNSKNTAYLQMNSLKPEDTAVYYCARDRGGSDWGQGTLVTVSS ?
-- reply 914 nM
